Tested on: PC-3
experimental protocol: Cytotoxicity against human PC-3 cells assessed as reduction in cell viability measured after 24 hrs by MTT assay
Assay type: functional, cell-based
test conditions: PC-3, 24 h
Could you please report measured pIC50 for the items listed next?
pIC50 (log units): -log10 of the concentration in mol/L.

Data request: Bench note: what pIC50 did `COc1ccc(C(=O)/C=C/c2cnn(-c3ccccc3)n2)c(OC)c1` show?
Data returned: 4.59

Data request: Bench note: what pIC50 did `O=C(/C=C/c1cnn(-c2ccccc2)n1)c1cccs1` show?
Data returned: 4.32

Data request: Bench note: what pIC50 did `COc1cc(-c2cccs2)cc(-c2nnn(Cc3ccccc3)c2C)n1` show?
Data returned: 5.99

Data request: Bench note: what pIC50 did COc1cccc2c1C(=O)c1c(O)c3c(c(O)c1C2=O)C[C@@](O)(C(=O)CO)C[C@@H]3O[C@H]1C[C@H](N)[C@H](O)[C@H](C)O1 [DOXORUBICIN] show?
Data returned: 6.11

Data request: Bench note: what pIC50 did `O=C(/C=C/c1cnn(-c2ccccc2)n1)c1ccccc1` show?
Data returned: 4.54

Data request: Bench note: what pIC50 did `Cc1ccc(C(=O)/C=C/c2cnn(-c3ccccc3)n2)c(C)c1` show?
Data returned: 4.81
